The measured values listed here are drawn from ChEMBL document CHEMBL1131753.

biological target: Protein kinase C delta type (Homo sapiens, UniProt Q05655); assay: Displacement of [3H]PDBu from protein kinase C delta C1a domain
Sequence (Q05655 whole entry, the tested form may be a part): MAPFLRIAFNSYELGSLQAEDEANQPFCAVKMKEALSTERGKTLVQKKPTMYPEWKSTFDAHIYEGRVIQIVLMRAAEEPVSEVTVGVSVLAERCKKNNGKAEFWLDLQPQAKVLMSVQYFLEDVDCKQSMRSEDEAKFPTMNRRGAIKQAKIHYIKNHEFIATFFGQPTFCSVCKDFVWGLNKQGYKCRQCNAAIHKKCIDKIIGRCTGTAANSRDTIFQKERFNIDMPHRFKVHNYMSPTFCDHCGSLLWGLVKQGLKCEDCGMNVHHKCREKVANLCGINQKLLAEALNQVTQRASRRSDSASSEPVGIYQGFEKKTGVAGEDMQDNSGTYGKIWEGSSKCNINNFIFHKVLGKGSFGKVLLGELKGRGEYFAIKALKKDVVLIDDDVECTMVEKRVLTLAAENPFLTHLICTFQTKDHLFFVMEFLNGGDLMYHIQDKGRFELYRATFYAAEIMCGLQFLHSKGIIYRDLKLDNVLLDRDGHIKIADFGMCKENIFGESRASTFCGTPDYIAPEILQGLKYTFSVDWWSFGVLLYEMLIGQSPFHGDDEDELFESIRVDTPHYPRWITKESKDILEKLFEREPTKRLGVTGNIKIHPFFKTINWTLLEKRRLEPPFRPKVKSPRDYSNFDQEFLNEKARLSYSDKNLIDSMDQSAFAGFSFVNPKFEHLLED
REPORTED PROPERTY: pKi
One number for each entry, as −log10 of the molar value.

>>> experimental_result("CCCCCCCC(=O)O[C@H]1/C(=C/C(=O)OC)CC2C[C@H]([C@@H](C)O)OC(=O)C[C@@H](O)C[C@@H]3CCC[C@H](C[C@@H]4CCO[C@H](/C=C/C(C)(C)[C@]1(O)O2)O4)O3")
6.31
>>> experimental_result("CCCCCCCC(=O)O[C@H]1/C(=C/C(=O)OC)CC2C[C@H]([C@@H](C)O)OC(=O)C[C@H](O)CCO[C@H](C(C)(C)C)C[C@@H]3CCO[C@H](/C=C/C(C)(C)[C@]1(O)O2)O3")
7.07

Next molecule, pKi to be filled in.
Entry under review: `CCCCCCCC(=O)O[C@H]1/C(=C/C(=O)OC)CC2C[C@H]([C@@H](C)O)OC(=O)C[C@H](O)C[C@@H]3CCC[C@H](C[C@@H]4CCO[C@H](/C=C/C(C)(C)[C@]1(O)O2)O4)O3` . Reported pKi?
7.18

====

Parameter 'readout' = pKi; parameter 'system' = Protein kinase C epsilon type (Homo sapiens).
Sequence (Q02156 whole entry): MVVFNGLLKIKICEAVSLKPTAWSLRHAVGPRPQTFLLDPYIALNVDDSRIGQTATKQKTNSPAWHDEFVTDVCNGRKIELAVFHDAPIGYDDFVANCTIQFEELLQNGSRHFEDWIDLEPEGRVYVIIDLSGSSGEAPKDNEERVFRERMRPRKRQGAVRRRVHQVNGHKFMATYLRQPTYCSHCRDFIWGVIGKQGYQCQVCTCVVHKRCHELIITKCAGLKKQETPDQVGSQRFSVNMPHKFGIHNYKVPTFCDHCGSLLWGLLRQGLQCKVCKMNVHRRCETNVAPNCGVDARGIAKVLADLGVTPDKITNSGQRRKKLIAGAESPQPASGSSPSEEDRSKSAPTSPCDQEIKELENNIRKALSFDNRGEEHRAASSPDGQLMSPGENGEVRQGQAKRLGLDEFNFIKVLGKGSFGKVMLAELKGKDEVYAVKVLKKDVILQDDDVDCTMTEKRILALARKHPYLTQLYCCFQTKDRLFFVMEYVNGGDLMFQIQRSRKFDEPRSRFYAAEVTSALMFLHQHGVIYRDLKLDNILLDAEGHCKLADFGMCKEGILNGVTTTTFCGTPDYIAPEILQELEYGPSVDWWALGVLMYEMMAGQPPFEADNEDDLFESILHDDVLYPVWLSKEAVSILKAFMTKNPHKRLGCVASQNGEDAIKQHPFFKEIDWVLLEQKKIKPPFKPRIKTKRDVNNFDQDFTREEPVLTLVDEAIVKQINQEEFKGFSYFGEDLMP
Numbers only, as −log10 of the molar value.

Illustrative cases are given below, each with its answer.
>>> experimental_result("CCCCCCCC(=O)O[C@H]1/C(=C/C(=O)OC)CC2C[C@H]([C@@H](C)O)OC(=O)C[C@H](O)C[C@@H]3CCC[C@H](C[C@@H]4CCO[C@H](/C=C/C(C)(C)[C@]1(O)O2)O4)O3")
7.75
>>> experimental_result("CCCCCCCC(=O)O[C@H]1/C(=C/C(=O)OC)CC2C[C@H]([C@@H](C)O)OC(=O)C[C@@H](O)C[C@@H]3CCC[C@H](C[C@@H]4CCO[C@H](/C=C/C(C)(C)[C@]1(O)O2)O4)O3")
6.31

Looking for the measured pKi of `CCCCCCCC(=O)O[C@H]1/C(=C/C(=O)OC)CC2C[C@H]([C@@H](C)O)OC(=O)C[C@H](O)CCO[C@H](C(C)(C)C)C[C@@H]3CCO[C@H](/C=C/C(C)(C)[C@]1(O)O2)O3` , can you help?
7.26

====

target: Protein kinase C delta type (Homo sapiens, UniProt Q05655); test: Displacement of [3H]PDBu from protein kinase C delta C1b domain
Hi there, I'd appreciate the recorded Ki for every entry that follows.
One number for each entry, in nM.

These solved cases illustrate the format of a correct answer.
>>> experimental_result("CCCCCCCC(=O)O[C@H]1/C(=C/C(=O)OC)CC2C[C@H]([C@@H](C)O)OC(=O)C[C@H](O)C[C@@H]3CCC[C@H](C[C@@H]4CCO[C@H](/C=C/C(C)(C)[C@]1(O)O2)O4)O3")
2.5
>>> experimental_result("CCCCCCCC(=O)O[C@H]1/C(=C/C(=O)OC)CC2C[C@H]([C@@H](C)O)OC(=O)C[C@H](O)CCO[C@H](C(C)(C)C)C[C@@H]3CCO[C@H](/C=C/C(C)(C)[C@]1(O)O2)O3")
6.3

Which Ki value belongs to `CCCCCCCC(=O)O[C@H]1/C(=C/C(=O)OC)CC2C[C@H]([C@@H](C)O)OC(=O)C[C@@H](O)C[C@@H]3CCC[C@H](C[C@@H]4CCO[C@H](/C=C/C(C)(C)[C@]1(O)O2)O4)O3` ?
64.2

====

Target or system Protein kinase C alpha type (Homo sapiens, UniProt P17252): recorded pKi listed per item.
pKi: −log10 of the molar value.

>>> experimental_result("CCCCCCCC(=O)O[C@H]1/C(=C/C(=O)OC)CC2C[C@H]([C@@H](C)O)OC(=O)C[C@@H](O)C[C@@H]3CCC[C@H](C[C@@H]4CCO[C@H](/C=C/C(C)(C)[C@]1(O)O2)O4)O3")
"< 6.30"
>>> experimental_result("CCCCCCCC(=O)O[C@H]1/C(=C/C(=O)OC)CC2C[C@H]([C@@H](C)O)OC(=O)C[C@H](O)CCO[C@H](C(C)(C)C)C[C@@H]3CCO[C@H](/C=C/C(C)(C)[C@]1(O)O2)O3")
"< 6.30"

What does the data say about its pKi? Entry: `CCCCCCCC(=O)O[C@H]1/C(=C/C(=O)OC)CC2C[C@H]([C@@H](C)O)OC(=O)C[C@H](O)C[C@@H]3CCC[C@H](C[C@@H]4CCO[C@H](/C=C/C(C)(C)[C@]1(O)O2)O4)O3`
6.90

====

Entries below carry reported Ki on Protein kinase C theta type (Homo sapiens).
Sequence (Q04759 whole entry): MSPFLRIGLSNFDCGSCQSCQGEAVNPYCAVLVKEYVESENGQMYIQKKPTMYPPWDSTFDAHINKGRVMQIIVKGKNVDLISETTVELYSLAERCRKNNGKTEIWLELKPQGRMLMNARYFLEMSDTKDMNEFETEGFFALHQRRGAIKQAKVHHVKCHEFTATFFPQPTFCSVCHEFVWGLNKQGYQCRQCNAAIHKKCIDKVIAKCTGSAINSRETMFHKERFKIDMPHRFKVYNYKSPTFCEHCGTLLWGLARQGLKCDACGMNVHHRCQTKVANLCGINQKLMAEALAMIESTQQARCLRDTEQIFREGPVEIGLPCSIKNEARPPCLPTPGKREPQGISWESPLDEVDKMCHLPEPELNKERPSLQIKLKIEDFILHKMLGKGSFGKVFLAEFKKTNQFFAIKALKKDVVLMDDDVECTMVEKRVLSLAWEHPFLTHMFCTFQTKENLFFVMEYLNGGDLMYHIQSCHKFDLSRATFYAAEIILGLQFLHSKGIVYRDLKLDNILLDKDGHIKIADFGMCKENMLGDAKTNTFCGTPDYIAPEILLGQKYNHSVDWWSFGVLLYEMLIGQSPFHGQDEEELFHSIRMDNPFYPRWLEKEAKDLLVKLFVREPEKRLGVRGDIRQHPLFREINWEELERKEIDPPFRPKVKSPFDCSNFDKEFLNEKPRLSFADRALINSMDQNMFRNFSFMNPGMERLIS
Give bare numbers, in nM.

Record excerpt, results attached:
>>> experimental_result("CCCCCCCC(=O)O[C@H]1/C(=C/C(=O)OC)CC2C[C@H]([C@@H](C)O)OC(=O)C[C@H](O)C[C@@H]3CCC[C@H](C[C@@H]4CCO[C@H](/C=C/C(C)(C)[C@]1(O)O2)O4)O3")
6.6
>>> experimental_result("CCCCCCCC(=O)O[C@H]1/C(=C/C(=O)OC)CC2C[C@H]([C@@H](C)O)OC(=O)C[C@H](O)CCO[C@H](C(C)(C)C)C[C@@H]3CCO[C@H](/C=C/C(C)(C)[C@]1(O)O2)O3")
24.1

Here's the next entry for you.
Returns the measured Ki for the input compound. Input: `CCCCCCCC(=O)O[C@H]1/C(=C/C(=O)OC)CC2C[C@H]([C@@H](C)O)OC(=O)C[C@@H](O)C[C@@H]3CCC[C@H](C[C@@H]4CCO[C@H](/C=C/C(C)(C)[C@]1(O)O2)O4)O3`
147

====

target: Protein kinase C eta type (Homo sapiens)
Sequence (P24723 whole entry): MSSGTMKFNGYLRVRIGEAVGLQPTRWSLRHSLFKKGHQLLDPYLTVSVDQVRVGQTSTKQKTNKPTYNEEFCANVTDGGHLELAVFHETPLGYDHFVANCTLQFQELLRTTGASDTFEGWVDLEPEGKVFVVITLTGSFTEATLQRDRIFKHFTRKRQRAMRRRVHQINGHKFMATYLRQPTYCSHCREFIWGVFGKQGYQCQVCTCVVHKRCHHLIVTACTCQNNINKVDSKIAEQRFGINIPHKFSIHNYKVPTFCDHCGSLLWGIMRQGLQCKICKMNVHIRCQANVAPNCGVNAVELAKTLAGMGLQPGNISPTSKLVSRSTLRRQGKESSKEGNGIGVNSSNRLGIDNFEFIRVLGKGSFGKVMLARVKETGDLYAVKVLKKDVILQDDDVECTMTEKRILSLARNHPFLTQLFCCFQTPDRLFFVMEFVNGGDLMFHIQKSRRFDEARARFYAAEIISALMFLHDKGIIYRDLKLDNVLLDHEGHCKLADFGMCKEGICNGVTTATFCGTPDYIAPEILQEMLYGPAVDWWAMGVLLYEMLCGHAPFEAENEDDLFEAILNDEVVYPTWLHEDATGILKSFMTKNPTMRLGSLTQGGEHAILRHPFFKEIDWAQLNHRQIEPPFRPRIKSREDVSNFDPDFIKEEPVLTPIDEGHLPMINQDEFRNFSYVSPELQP
Can you tell me pKi for the items I'm about to list?
Give bare numbers, as −log10 of the molar value.

>>> experimental_result("CCCCCCCC(=O)O[C@H]1/C(=C/C(=O)OC)CC2C[C@H]([C@@H](C)O)OC(=O)C[C@H](O)C[C@@H]3CCC[C@H](C[C@@H]4CCO[C@H](/C=C/C(C)(C)[C@]1(O)O2)O4)O3")
7.63

Suppose we examine the compound `CCCCCCCC(=O)O[C@H]1/C(=C/C(=O)OC)CC2C[C@H]([C@@H](C)O)OC(=O)C[C@H](O)CCO[C@H](C(C)(C)C)C[C@@H]3CCO[C@H](/C=C/C(C)(C)[C@]1(O)O2)O3` ; what pKi value has been reported?
7.15

====

biological target: Protein kinase C gamma type (Homo sapiens, UniProt P05129); test: Displacement of [3H]PDBu from protein kinase C gamma C1b domain
Assignment: determine reported Ki for the given compounds.

>>> experimental_result("CCCCCCCC(=O)O[C@H]1/C(=C/C(=O)OC)CC2C[C@H]([C@@H](C)O)OC(=O)C[C@H](O)C[C@@H]3CCC[C@H](C[C@@H]4CCO[C@H](/C=C/C(C)(C)[C@]1(O)O2)O4)O3")
"> 500 nM"
>>> experimental_result("CCCCCCCC(=O)O[C@H]1/C(=C/C(=O)OC)CC2C[C@H]([C@@H](C)O)OC(=O)C[C@@H](O)C[C@@H]3CCC[C@H](C[C@@H]4CCO[C@H](/C=C/C(C)(C)[C@]1(O)O2)O4)O3")
"> 500 nM"

From here, focus on the item given below.
// Ki lookup, key: `CCCCCCCC(=O)O[C@H]1/C(=C/C(=O)OC)CC2C[C@H]([C@@H](C)O)OC(=O)C[C@H](O)CCO[C@H](C(C)(C)C)C[C@@H]3CCO[C@H](/C=C/C(C)(C)[C@]1(O)O2)O3`
> 500 nM
